# Assay notes: in vivo
# Parameters: species or system female C3H/HeN mice
# Condition description: iv; Plasma+, calculated from values ≥ l.o.d. of 4 ng.ml^-1; mouse, 40 mg.kg^-1 i.v.; read-out: ClT (converted)
# Experimental: Groups of female C3H/HeN mice received the product by the intravenous route as a bolus at a dose level of 40 mg.kg^-1 equivalent to 120 mg.m^-2. Blood and brain samples were obtained from all dosed animals sacrificed at intervals up to 72 hours post dose. Brain and corresponding plasma samples have been assayed for product Ia content by an LC-MS/MS assay. • Formulation: 2.25 mg.ml^-1 solution containing 5 % Polysorbate 80, 5 % ethanol and 90 % of an aqueous 5 % glucose solution. […]
Test readout: clearance (mL/min/kg)
Kindly answer with a numeric value in mL/min/kg, unit omitted.

Q: Reported clearance for CO[C@H]1C(=O)[C@]2(C)[C@@H](OC)C[C@H]3OC[C@@]3(OC(C)=O)[C@H]2[C@H](OC(=O)c2ccccc2)[C@]2(O)C[C@H](OC(=O)[C@H](O)[C@@H](NC(=O)OC(C)(C)C)c3ccccc3)C(C)=C1C2(C)C : what is it?
Ans: 21.7

* * *

# Assay notes: in vivo
# Parameters: species or system female C3H/HeN mice
# Condition description: mouse, brain, iv, 40 mg/kg, 40 mg.kg^-1 i.v., 0.5h after dose, MEAN, read-out: Brain product Ic concentration
# Procedure: Groups of female C3H/HeN mice received the product by the intravenous route as a bolus at a dose level of 40 mg.kg^-1 equivalent to 120 mg.m^-2. Blood and brain samples were obtained from all dosed animals sacrificed at intervals up to 72 hours post dose. Brain and corresponding plasma samples have been assayed for product Ia content by an LC-MS/MS assay. • Formulation: 2.25 mg.ml^-1 solution containing 5 % Polysorbate 80, 5 % ethanol and 90 % of an aqueous 5 % glucose solution. […]
Test readout: concentration at 0.5 h
Please provide the amount together with its unit, number first.

Q: Need concentration at 0.5 h of CO[C@H]1C(=O)[C@]2(C)[C@@H](OC)C[C@H]3OC[C@@]3(OC(C)=O)[C@H]2[C@H](OC(=O)c2ccccc2)[C@]2(O)C[C@H](OC(=O)[C@H](O)[C@@H](NC(=O)OC(C)(C)C)c3ccccc3)C(C)=C1C2(C)C , thanks.
Ans: 7320 ng/g

* * *

# Assay notes: in vivo
# Set-up: species or system female C3H/HeN mice
# Condition description: mouse, plasma, iv, 40 mg/kg, Plasma#, calculated from values ≥ b.l.q. of 20 ng.ml^-1, 40 mg.kg^-1 i.v., read-out: Initial T1/2 (converted)
Test readout: half-life

Q: Value lookup for half-life; key = CO[C@H]1C(=O)[C@]2(C)[C@@H](OC)C[C@H]3OC[C@@]3(OC(C)=O)[C@H]2[C@H](OC(=O)c2ccccc2)[C@]2(O)C[C@H](OC(=O)[C@H](O)[C@@H](NC(=O)OC(C)(C)C)c3ccccc3)C(C)=C1C2(C)C
Ans: 12 min

* * *

# Assay notes: in vivo
# Set-up: species or system female C3H/HeN mice
# Condition description: plasma, iv; mouse, 40 mg.kg^-1 i.v.; 48 h after dose; individual animals IV1-IV4; blq = below 20 ng.ml^-1, n.d. = not detected (≤ l.o.d. of 4 ng.ml^-1); read-out: Plasma product Ic concentration
# Procedure: Groups of female C3H/HeN mice received the product by the intravenous route as a bolus at a dose level of 40 mg.kg^-1 equivalent to 120 mg.m^-2. Blood and brain samples were obtained from all dosed animals sacrificed at intervals up to 72 hours post dose. Brain and corresponding plasma samples have been assayed for product Ia content by an LC-MS/MS assay. • Formulation: 2.25 mg.ml^-1 solution containing 5 % Polysorbate 80, 5 % ethanol and 90 % of an aqueous 5 % glucose solution. […]
Test readout: concentration at 48 h (ng/mL)
Numbers only here, please. The scale is ng/mL.

Q: Query (compound): CO[C@H]1C(=O)[C@]2(C)[C@@H](OC)C[C@H]3OC[C@@]3(OC(C)=O)[C@H]2[C@H](OC(=O)c2ccccc2)[C@]2(O)C[C@H](OC(=O)[C@H](O)[C@@H](NC(=O)OC(C)(C)C)c3ccccc3)C(C)=C1C2(C)C [product Ia] ; field requested: concentration at 48 h
Ans: 4

* * *

# Assay notes: in vivo
# Design: species or system female C3H/HeN mice
# Condition description: mouse, brain, iv, 40 mg/kg, 40 mg.kg^-1 i.v., 4h after dose, MEAN, read-out: Brain product Ic concentration
Test readout: concentration at 4 h
Write the quantity with the unit trailing the number.

Q: Entry CO[C@H]1C(=O)[C@]2(C)[C@@H](OC)C[C@H]3OC[C@@]3(OC(C)=O)[C@H]2[C@H](OC(=O)c2ccccc2)[C@]2(O)C[C@H](OC(=O)[C@H](O)[C@@H](NC(=O)OC(C)(C)C)c3ccccc3)C(C)=C1C2(C)C has what concentration at 4 h?
Ans: 6760 ng/g

* * *

# Assay notes: in vivo
# Design: species or system female C3H/HeN mice
# Condition description: mouse, brain, iv, 40 mg/kg, 40 mg.kg^-1 i.v., at 2 mins, read-out: brain level at the first sampling time
Test readout: concentration at 2 min

Q: Dear colleague, I am looking for the recorded concentration at 2 min of the following molecule: CO[C@H]1C(=O)[C@]2(C)[C@@H](OC)C[C@H]3OC[C@@]3(OC(C)=O)[C@H]2[C@H](OC(=O)c2ccccc2)[C@]2(O)C[C@H](OC(=O)[C@H](O)[C@@H](NC(=O)OC(C)(C)C)c3ccccc3)C(C)=C1C2(C)C
Ans: 7900 ng/g

* * *

# Assay notes: in vivo
# Parameters: species or system female C3H/HeN mice
# Condition description: mouse, brain, iv, 40 mg/kg, 40 mg.kg^-1 i.v., 24 h after dose, MEAN, read-out: Brain product Ic concentration
Test readout: concentration at 24 h (ng/g)
The answer is to be given in ng/g; state only the numeric part.

Q: Tell me the measured concentration at 24 h of CO[C@H]1C(=O)[C@]2(C)[C@@H](OC)C[C@H]3OC[C@@]3(OC(C)=O)[C@H]2[C@H](OC(=O)c2ccccc2)[C@]2(O)C[C@H](OC(=O)[C@H](O)[C@@H](NC(=O)OC(C)(C)C)c3ccccc3)C(C)=C1C2(C)C , please.
Ans: 8670

* * *

# Assay notes: in vivo
# Parameters: species or system female C3H/HeN mice
# Condition description: mouse, plasma, iv, 40 mg/kg, plasma, 40 mg.kg^-1 i.v., read-out: initial half-life
Test readout: half-life

Q: Quick one: half-life for CO[C@H]1C(=O)[C@]2(C)[C@@H](OC)C[C@H]3OC[C@@]3(OC(C)=O)[C@H]2[C@H](OC(=O)c2ccccc2)[C@]2(O)C[C@H](OC(=O)[C@H](O)[C@@H](NC(=O)OC(C)(C)C)c3ccccc3)C(C)=C1C2(C)C [product Ia] ?
Ans: ≤ 42 min

* * *

# Assay notes: in vivo
# Set-up: species or system female C3H/HeN mice
# Condition description: mouse, plasma, iv, 40 mg/kg, 40 mg.kg^-1 i.v., 0.5h after dose, MEAN, read-out: Plasma product Ic concentration
Test readout: concentration at 0.5 h (ng/mL)
Expressed in ng/mL, but write only the number.

Q: Which measured concentration at 0.5 h value corresponds to CO[C@H]1C(=O)[C@]2(C)[C@@H](OC)C[C@H]3OC[C@@]3(OC(C)=O)[C@H]2[C@H](OC(=O)c2ccccc2)[C@]2(O)C[C@H](OC(=O)[C@H](O)[C@@H](NC(=O)OC(C)(C)C)c3ccccc3)C(C)=C1C2(C)C ?
Ans: 10400

* * *

# Assay notes: in vivo
# Set-up: species or system female C3H/HeN mice
# Condition description: mouse, plasma, iv, 40 mg/kg, 40 mg.kg^-1 i.v., 0.75h after dose, individual animals IV1-IV4, read-out: Plasma product Ic concentration
Test readout: concentration at 0.75 h (ng/mL)
Reply with just the number (in ng/mL).

Q: Could you share which concentration at 0.75 h value was measured for CO[C@H]1C(=O)[C@]2(C)[C@@H](OC)C[C@H]3OC[C@@]3(OC(C)=O)[C@H]2[C@H](OC(=O)c2ccccc2)[C@]2(O)C[C@H](OC(=O)[C@H](O)[C@@H](NC(=O)OC(C)(C)C)c3ccccc3)C(C)=C1C2(C)C ?
Ans: 7130

* * *

# Assay notes: in vivo
# Set-up: species or system female C3H/HeN mice
# Condition description: mouse, plasma, iv, 40 mg/kg, 40 mg.kg^-1 i.v., 5 min after dose, individual animals IV1-IV4, read-out: Plasma product Ic concentration
Test readout: concentration at 5 min (ng/mL)
Just the number in ng/mL, nothing appended.

Q: Can you share its concentration at 5 min? I mean this molecule: CO[C@H]1C(=O)[C@]2(C)[C@@H](OC)C[C@H]3OC[C@@]3(OC(C)=O)[C@H]2[C@H](OC(=O)c2ccccc2)[C@]2(O)C[C@H](OC(=O)[C@H](O)[C@@H](NC(=O)OC(C)(C)C)c3ccccc3)C(C)=C1C2(C)C
Ans: 36700
